Where do the numbers come from? From patent US20170298055A1.

testedTarget: soluble guanylate cyclase (sGC) (Homo sapiens, UniProt Q02108+Q02153)
Construct: endogenously expressing soluble guanylate cyclase (sGC); endogenous in cells; host or cells: HEK293
Sequence (Q02153 1-619): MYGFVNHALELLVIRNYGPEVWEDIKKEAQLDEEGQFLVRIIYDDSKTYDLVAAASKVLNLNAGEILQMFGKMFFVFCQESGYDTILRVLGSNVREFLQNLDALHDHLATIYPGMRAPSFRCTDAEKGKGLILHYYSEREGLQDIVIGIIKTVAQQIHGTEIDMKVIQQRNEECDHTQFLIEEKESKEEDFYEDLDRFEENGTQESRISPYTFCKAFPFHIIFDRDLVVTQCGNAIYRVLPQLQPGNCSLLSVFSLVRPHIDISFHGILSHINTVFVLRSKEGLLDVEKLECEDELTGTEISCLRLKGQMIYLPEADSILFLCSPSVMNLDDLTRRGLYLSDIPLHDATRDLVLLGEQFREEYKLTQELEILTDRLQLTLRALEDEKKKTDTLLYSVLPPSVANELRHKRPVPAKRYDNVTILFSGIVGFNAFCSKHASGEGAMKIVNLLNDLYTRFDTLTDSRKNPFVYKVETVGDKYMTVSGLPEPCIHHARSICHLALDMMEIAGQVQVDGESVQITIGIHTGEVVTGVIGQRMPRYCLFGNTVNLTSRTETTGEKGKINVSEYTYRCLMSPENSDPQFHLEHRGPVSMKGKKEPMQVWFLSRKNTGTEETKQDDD
Sequence (Q02108 1-690): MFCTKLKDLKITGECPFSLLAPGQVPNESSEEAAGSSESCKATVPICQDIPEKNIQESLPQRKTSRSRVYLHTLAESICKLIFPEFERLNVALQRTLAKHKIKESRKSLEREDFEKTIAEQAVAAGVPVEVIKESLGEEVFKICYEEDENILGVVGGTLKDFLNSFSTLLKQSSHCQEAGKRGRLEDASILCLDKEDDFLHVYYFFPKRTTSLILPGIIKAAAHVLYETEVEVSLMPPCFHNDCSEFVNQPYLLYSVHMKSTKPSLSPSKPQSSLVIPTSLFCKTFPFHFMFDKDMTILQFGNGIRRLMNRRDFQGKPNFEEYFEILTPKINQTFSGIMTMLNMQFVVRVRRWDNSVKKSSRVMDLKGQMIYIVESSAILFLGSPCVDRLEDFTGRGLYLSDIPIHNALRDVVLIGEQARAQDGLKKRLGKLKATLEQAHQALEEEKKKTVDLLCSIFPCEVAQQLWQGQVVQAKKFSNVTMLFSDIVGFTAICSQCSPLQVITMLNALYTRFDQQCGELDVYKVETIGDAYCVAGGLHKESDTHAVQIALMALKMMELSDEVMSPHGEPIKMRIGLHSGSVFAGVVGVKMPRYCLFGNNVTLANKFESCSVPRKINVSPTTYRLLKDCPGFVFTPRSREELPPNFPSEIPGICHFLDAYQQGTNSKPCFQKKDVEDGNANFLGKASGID
procedureText: sGC-HEK-cGMP assay, LC/MS detection, with SNP incubation (Example 2A)
Type: cell-based
settings: HEK293 cells, in the presence of 10 μM SNP; top of concentration-response curve not fitted to 100%; read-out: sGC_HEK_LCMS uEC50 (nM) Binned (unconstrained)
Procedure: Human embryonic kidney cells (HEK293), endogenously expressing soluble guanylate cyclase (sGC), were used to evaluate the activity of test compounds. […] A 2× cGMP standard curve was prepared in 0.1 M HCl and then diluted with an equal volume of 1 M Ammonium Acetate, with the following final concentrations in nM: 1024, 512, 256, 128, 64, 32, 16, 8, 4, 2, 1. cGMP concentrations were determined from each sample using the LC/MS conditions (Table 2 below) and calculated standard curve. […]
Can you tell me EC50 for the items I'm about to list?

Worked cases, answers included:
molecule	EC50
COC(=O)C1(Oc2nc(-c3cc(-c4ccon4)n(Cc4ccccc4F)n3)ncc2F)CC1	1000 to 5000 nM
COC(=O)COc1nc(-c2cc(-c3ccon3)n(Cc3ccccc3F)n2)ncc1F	1000 to 5000 nM
Fc1ccccc1Cn1nc(-c2ncc(F)c(OC3CCNCC3)n2)cc1-c1ccon1	≥ 5000 nM
COC(=O)c1ccccc1C#Cc1nc(-c2cc(-c3ccon3)n(Cc3ccccc3F)n2)ncc1F	1000 to 5000 nM
CC(C)(C)OC(=O)N1CCCC1COc1nc(-c2cc(-c3ccon3)n(Cc3ccccc3F)n2)ncc1F (stereo not shown)	1000 to 5000 nM
O=C1O/C(=C\c2nc(-c3cc(-c4ccon4)n(Cc4ccccc4F)n3)ncc2F)c2ccccc21	1000 to 5000 nM
CN(C)CCOc1nc(-c2cc(-c3ccon3)n(Cc3ccccc3F)n2)ncc1F	100 to 1000 nM
Fc1ccccc1Cn1nc(-c2ncc(F)c(OC3CNC3)n2)cc1-c1ccon1	1000 to 5000 nM

Provide the reported EC50 of each entry below, same order.
1. Fc1ccccc1Cn1nc(-c2ncc(F)c(OC3CCOC3)n2)cc1-c1ccon1 (stereo not shown)
2. Fc1ccccc1Cn1nc(-c2ncc(F)c(OCC(F)(F)c3ccccn3)n2)cc1-c1ccon1
3. OCCOc1nc(-c2cc(-c3ccon3)n(Cc3ccccc3F)n2)ncc1F
4. O=C(O)c1ccccc1C(=O)Cc1nc(-c2cc(-c3ccon3)n(Cc3ccccc3F)n2)ncc1F
5. CS(=O)(=O)N1CCCC(Oc2nc(-c3cc(-c4ccon4)n(Cc4ccccc4F)n3)ncc2F)C1 (stereo not shown)

Result ::
["100 to 1000 nM", "100 to 1000 nM", "100 to 1000 nM", "1000 to 5000 nM", "1000 to 5000 nM"]

* * *

Give measured EC50 for each item. Keep answers brief.
testedTarget: soluble guanylate cyclase (sGC) (Homo sapiens, UniProt Q02108+Q02153)
Construct: endogenously expressing soluble guanylate cyclase (sGC); endogenous in cells; host or cells: HEK293
procedureText: sGC-HEK-cGMP assay, LC/MS detection, updated conditions with DETA-NONOate (Example 2B)
Assay type: cell-based
settings: read-out: sGC_HEK_LCMS EC50/IC50 Abs (Norm) (nM) Binned

smilesCode	testValue
CN(C)CCOc1nc(-c2cc(-c3ccon3)n(Cc3ccccc3F)n2)ncc1F	> 1000 nM

Documented EC50 of `OCCOc1nc(-c2cc(-c3ccon3)n(Cc3ccccc3F)n2)ncc1F` : 100 to 1000 nM
